SUBJECT OF TEST: CLK2 (human)
TEST DESCRIPTION: radiometric filter-binding kinase assay
CONDITION SUMMARY: compound 1.0 µM
REPORTED PROPERTY: residual activity (%)

Before answering, review these 4 worked examples.
Data request: For O=c1c(O)c(-c2ccc(O)c(O)c2)oc2cc(O)c(O)c(O)c12 , what is its reported residual activity?
Data returned: 58

Data request: Which residual activity value is on record for CN(C)C/C=C/C(=O)Nc1cccc(C(=O)Nc2ccc(Nc3nccc(-c4cccnc4)n3)cc2)c1 ?
Data returned: 18

Data request: Which residual activity value belongs to CCn1c(-c2nonc2N)nc2cncc(CNC3CCNCC3)c21 ?
Data returned: 71

Data request: What value of measured residual activity is listed for O=C(NOCC(O)CO)c1ccc(F)c(F)c1Nc1ccc(I)cc1Cl (stereo unspecified) ?
Data returned: 94

a. COc1cc(C(=O)N2CCOCC2)c(F)cc1Nc1ncc(C(F)(F)F)c(NC2CC2)n1
b. CC(C)(C#N)c1ccc(N2C(=O)OCc3cnc4ccc(-c5cnc6ccccc6c5)cc4c32)cc1
Data request: Which value of residual activity is smaller, the one for a or the one for b ? Return value: the label identifying the chosen record.
Data returned: a

###

SUBJECT OF TEST: PIM2 (human)
TEST DESCRIPTION: radiometric filter-binding kinase assay
CONDITION SUMMARY: compound 1.0 µM
REPORTED PROPERTY: residual activity (%)

Known results for compounds:
Data request: Reported residual activity, compound NC(=O)c1cc2c(-c3cccc(-c4ccccc4)c3)cnc(N)c2s1 : ____
Data returned: 95

Data request: Any idea what residual activity was measured for CCCC(CCC)C(=O)O ?
Data returned: 83

Data request: Would you mind telling me what residual activity value was observed for CCc1cncnc1N1CCN(Cc2nc3cc(C(F)(F)F)ccc3[nH]2)CC1 ?
Data returned: 90

Data request: Would you kindly share the measured residual activity for O=c1c(O)c(-c2ccc(O)c(O)c2)oc2cc(O)c(O)c(O)c12 ?
Data returned: 74

Data request: Consider the compound NC(=O)c1cc(-c2ccnc(NC3CCCCC3)c2)nc(N2CCNCC2)c1 and give its measured residual activity.
Data returned: 102

1. CNc1nc(-c2ccc3c(N)n[nH]c3c2)cc(N2C[C@@H](C(=O)NC3CCCCC3)CC[C@H]2C)n1
2. CNC(=O)C1[C@H]2O[C@@](C)([C@@H]1N)n1c3ccccc3c3c4c(c5c6ccccc6n2c5c31)C(=O)NC4 (some centres undefined)
Data request: Out of 1 and 2 , name the one with the higher residual activity. Please indicate the selected item by its label.
Data returned: 1

###

SUBJECT OF TEST: BRSK1 (human) (UniProt Q8TDC3)
Sequence (Q8TDC3 whole entry, looked up): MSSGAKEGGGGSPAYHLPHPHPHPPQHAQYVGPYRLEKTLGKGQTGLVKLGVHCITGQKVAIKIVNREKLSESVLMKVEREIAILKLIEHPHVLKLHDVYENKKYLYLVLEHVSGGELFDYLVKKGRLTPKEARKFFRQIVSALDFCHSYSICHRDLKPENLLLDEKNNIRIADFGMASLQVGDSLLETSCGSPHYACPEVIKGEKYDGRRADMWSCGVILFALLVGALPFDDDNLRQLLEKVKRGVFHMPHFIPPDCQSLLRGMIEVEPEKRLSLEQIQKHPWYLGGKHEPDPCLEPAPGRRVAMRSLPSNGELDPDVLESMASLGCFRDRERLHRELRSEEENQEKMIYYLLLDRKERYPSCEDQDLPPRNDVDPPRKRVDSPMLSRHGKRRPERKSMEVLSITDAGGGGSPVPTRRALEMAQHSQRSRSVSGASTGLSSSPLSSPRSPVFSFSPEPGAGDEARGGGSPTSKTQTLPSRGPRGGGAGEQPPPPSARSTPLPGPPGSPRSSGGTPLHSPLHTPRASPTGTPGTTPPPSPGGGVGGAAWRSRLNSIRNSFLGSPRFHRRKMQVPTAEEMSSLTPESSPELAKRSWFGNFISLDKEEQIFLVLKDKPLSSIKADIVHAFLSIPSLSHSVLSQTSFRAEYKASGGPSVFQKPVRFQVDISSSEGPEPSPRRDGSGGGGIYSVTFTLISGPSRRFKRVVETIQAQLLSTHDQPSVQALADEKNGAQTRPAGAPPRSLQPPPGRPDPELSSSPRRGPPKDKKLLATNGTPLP
TEST DESCRIPTION: radiometric filter-binding kinase assay
CONDITION SUMMARY: compound 10.0 µM
REPORTED PROPERTY: residual activity (%)

Worked cases, residual activity given:
Data request: Requested read-out: residual activity. Entry: O=C(N[C@@H](COc1ccc2[nH]c(=O)[nH]c2c1)c1ccccc1)c1cccn(Cc2ccc(F)c(F)c2)c1=O
Data returned: 92

Data request: Quick check: residual activity of O=S(=O)(c1ccc(F)c2nonc12)N1CCN(c2ncc(C(F)(F)F)cc2Cl)CC1 ?
Data returned: 109

Data request: Looking for the measured residual activity of O=C(NOCC(O)CO)c1ccc(F)c(F)c1Nc1ccc(I)cc1Cl (stereo unspecified) , can you help?
Data returned: 101

Data request: Which residual activity is listed for CCCCCc1ccc(/C=C/[C@H](O)[C@@H](CO)NC)cc1 ?
Data returned: 97

P. Cc1ccc(=O)n(-c2ccccc2)c1
Q. CCn1c(-c2nonc2N)nc2cncc(CNC3CCNCC3)c21
Data request: Among P and Q , which shows a numerically higher residual activity result? # respond with the chosen item's label
Data returned: P
(P: 93%, Q: 41%)

###

SUBJECT OF TEST: RPS6KA5 KD1 KD2 (human)
TEST DESCRIPTION: radiometric filter-binding kinase assay
CONDITION SUMMARY: compound 10.0 µM
REPORTED PROPERTY: residual activity (%)

I. N#Cc1c(C2CCNCC2)cc(-c2c(O)cccc2OCC2CC2)nc1N
II. Oc1ccc2ccccc2c1SSc1c(O)ccc2ccccc12
III. NC(=O)c1ccc(-c2ccc(Oc3cncc4sc(-c5nn[nH]n5)cc34)cc2)cc1
Data request: Please order the records by their reported residual activity, lowest number first. Please list each label once, in the requested order.
Data returned: III, I, II
(III: 20%, I: 55%, II: 101%)

###

SUBJECT OF TEST: HIPK3 (human) (UniProt Q9H422)
Sequence (Q9H422 whole entry, looked up): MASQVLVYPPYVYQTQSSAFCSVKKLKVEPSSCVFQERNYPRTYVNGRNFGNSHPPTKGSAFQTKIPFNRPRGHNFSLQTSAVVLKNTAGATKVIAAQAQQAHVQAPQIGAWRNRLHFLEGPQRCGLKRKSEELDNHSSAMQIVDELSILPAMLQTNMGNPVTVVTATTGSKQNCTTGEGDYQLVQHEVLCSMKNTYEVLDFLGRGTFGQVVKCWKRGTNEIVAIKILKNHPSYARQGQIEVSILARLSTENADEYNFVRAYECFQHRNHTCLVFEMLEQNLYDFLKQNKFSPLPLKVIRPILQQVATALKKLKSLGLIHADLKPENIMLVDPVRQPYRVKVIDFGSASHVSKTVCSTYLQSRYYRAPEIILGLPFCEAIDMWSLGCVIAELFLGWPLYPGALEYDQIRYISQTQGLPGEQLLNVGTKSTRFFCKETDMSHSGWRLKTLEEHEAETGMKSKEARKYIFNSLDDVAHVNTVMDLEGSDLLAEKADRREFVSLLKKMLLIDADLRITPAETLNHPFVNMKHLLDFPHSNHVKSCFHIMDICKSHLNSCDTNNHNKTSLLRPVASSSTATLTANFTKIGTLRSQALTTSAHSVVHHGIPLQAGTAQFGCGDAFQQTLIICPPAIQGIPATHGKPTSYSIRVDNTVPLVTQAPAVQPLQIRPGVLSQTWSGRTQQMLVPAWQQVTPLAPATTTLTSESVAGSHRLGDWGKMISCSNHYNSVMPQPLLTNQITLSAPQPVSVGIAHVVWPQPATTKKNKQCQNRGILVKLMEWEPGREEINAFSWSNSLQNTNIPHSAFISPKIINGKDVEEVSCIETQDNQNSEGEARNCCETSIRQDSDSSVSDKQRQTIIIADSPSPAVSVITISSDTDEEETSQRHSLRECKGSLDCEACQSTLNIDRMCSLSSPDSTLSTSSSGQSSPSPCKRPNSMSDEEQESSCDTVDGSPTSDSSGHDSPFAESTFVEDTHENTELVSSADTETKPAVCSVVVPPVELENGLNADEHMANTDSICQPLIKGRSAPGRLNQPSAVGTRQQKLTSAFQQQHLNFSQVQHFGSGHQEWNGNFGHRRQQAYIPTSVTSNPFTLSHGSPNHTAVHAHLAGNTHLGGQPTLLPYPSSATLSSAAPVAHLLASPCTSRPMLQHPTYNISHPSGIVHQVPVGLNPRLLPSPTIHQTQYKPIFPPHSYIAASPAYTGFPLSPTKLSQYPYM
TEST DESCRIPTION: radiometric filter-binding kinase assay
CONDITION SUMMARY: compound 0.1 µM
REPORTED PROPERTY: residual activity (%)

Data request: // query residual activity value for entry CN1CCN(CCOc2cc(OC3CCOCC3)c3c(Nc4c(Cl)ccc5c4OCO5)ncnc3c2)CC1
Data returned: 101

Data request: Which residual activity value belongs to O=C(O)c1ccc(-c2c[nH]c3ncc(-c4ccccc4)cc23)cc1C1CCCC1 ?
Data returned: 100

Data request: Which residual activity is reported for this molecule? CCCCCc1ccc(/C=C/[C@H](O)[C@@H](CO)NC)cc1
Data returned: 118

Data request: Param item = O=C(Nc1nc2cc(C(F)(F)F)cc(NC3CC3)n2n1)c1cccnc1 ; retrieve measured residual activity.
Data returned: 102

Data request: Item under review: CC1=C(CO)C(=O)O[C@@H]([C@@H](C)[C@H]2CC[C@H]3[C@@H]4C[C@H]5O[C@]56[C@@H](O)C=CC(=O)[C@]6(C)C4CC[C@]23C)C1 (stereo partly drawn) . Reported residual activity?
Data returned: 96

Data request: I am curious: what residual activity value has been reported for NC(=O)c1cc(-c2ccnc(NC3CCCCC3)c2)nc(N2CCNCC2)c1 ?
Data returned: 95

Data request: Recorded residual activity for Cc1cccc(-c2nn(C(=S)Nc3ccccc3)cc2-c2ccnc3ccccc23)n1 , please?
Data returned: 105

Data request: What residual activity value was documented for this molecule, COc1cc(O)c2c(c1)[C@H]1OC1C[C@H](O)[C@H](O)C(=O)/C=C\C[C@H](C)OC2=O (stereo partly drawn) ?
Data returned: 100

###

SUBJECT OF TEST: PLK1 (human) (UniProt P53350)
Sequence (P53350 whole entry, looked up): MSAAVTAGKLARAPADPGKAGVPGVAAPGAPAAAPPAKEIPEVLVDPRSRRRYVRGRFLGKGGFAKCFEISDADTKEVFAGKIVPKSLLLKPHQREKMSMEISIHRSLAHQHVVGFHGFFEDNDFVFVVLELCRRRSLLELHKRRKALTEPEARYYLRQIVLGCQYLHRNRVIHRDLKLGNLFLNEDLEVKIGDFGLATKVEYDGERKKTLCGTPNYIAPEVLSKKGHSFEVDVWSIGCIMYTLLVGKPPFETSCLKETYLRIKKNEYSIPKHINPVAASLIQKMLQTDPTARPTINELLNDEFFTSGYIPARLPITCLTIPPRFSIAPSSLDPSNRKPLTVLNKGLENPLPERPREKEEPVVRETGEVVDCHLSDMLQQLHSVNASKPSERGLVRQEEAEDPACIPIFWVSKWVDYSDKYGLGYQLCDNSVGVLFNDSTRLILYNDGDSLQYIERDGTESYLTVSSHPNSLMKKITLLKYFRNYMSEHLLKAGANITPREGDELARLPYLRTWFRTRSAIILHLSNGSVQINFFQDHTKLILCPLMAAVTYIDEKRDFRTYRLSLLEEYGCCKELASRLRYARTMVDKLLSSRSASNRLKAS
TEST DESCRIPTION: radiometric filter-binding kinase assay
CONDITION SUMMARY: compound 10.0 µM
REPORTED PROPERTY: residual activity (%)

Data request: Fill in the blank: the reported residual activity of Nc1cccc2c1CN(C1CCC(=O)NC1=O)C2=O (stereo not drawn) is ____.
Data returned: 96

A. Cc1ccc(-c2ccc3c(ccc4sc5c(c43)NC[C@@H](C)NC5=O)n2)cn1
B. O=c1c(O)c(-c2ccc(O)c(O)c2)oc2cc(O)c(O)c(O)c12
C. CCNc1nc(Nc2cc(F)c(C(=O)N3CCOCC3)cc2OC)ncc1C(F)(F)F
Data request: Sort (3 molecules) by residual activity: min first. // rank by listing labels in the order requested
Data returned: B, C, A
(B: 23%, C: 39%, A: 98%)

###

SUBJECT OF TEST: CAMKK2 (human)
TEST DESCRIPTION: radiometric filter-binding kinase assay
CONDITION SUMMARY: compound 0.01 µM
REPORTED PROPERTY: residual activity (%)

Data request: Need residual activity of O=C(Nc1nc2cc(C(F)(F)F)cc(NC3CC3)n2n1)c1cccnc1 , thanks.
Data returned: 108

P. COc1ccc(N(C(=O)Nc2c(C)cccc2C)c2cc(Nc3ccc(N4CCN(C)CC4)cc3)ncn2)c(OC)c1
Q. CNC(=O)C1[C@H]2O[C@@](C)([C@@H]1N)n1c3ccccc3c3c4c(c5c6ccccc6n2c5c31)C(=O)NC4 (stereo partly specified)
Data request: Compare residual activity: is it lower for P or for Q ? Please identify the chosen entry by its label.
Data returned: Q

###

SUBJECT OF TEST: MAP3K7 TAB1 (human) (UniProt Q15750+O43318)
Sequence (O43318 whole entry, looked up): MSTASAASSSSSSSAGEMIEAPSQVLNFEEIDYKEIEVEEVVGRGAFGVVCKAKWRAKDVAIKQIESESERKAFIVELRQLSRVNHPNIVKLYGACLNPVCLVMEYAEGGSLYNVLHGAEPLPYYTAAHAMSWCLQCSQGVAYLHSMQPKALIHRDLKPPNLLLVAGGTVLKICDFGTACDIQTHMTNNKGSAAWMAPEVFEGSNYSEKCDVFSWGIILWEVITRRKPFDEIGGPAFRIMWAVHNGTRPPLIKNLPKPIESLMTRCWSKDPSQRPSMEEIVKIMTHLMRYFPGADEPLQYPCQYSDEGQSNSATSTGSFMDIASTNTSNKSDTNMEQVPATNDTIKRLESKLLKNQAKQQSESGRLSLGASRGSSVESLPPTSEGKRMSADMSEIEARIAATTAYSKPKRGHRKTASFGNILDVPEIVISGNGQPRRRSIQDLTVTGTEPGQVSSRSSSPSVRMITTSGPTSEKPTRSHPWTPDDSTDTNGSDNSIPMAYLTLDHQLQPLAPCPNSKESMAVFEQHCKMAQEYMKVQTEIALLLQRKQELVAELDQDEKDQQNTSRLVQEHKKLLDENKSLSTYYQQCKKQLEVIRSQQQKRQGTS
Sequence (Q15750 whole entry, looked up): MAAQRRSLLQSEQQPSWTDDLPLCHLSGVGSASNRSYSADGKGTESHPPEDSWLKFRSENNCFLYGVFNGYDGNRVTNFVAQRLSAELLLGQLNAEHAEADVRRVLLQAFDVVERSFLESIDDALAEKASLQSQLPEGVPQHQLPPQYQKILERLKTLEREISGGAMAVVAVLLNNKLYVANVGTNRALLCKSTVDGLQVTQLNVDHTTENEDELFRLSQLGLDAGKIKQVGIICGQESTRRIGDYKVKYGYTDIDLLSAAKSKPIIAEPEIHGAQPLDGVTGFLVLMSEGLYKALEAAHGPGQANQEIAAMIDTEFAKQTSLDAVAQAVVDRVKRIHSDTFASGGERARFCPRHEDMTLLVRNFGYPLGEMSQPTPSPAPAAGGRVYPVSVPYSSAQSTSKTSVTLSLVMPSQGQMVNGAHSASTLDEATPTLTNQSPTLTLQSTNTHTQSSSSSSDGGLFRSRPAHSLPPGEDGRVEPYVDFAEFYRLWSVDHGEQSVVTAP
TEST DESCRIPTION: radiometric filter-binding kinase assay
CONDITION SUMMARY: compound 1.0 µM
REPORTED PROPERTY: residual activity (%)

Record excerpt, results attached:
Data request: Given the entry Oc1ccc2ccccc2c1SSc1c(O)ccc2ccccc12 , report its measured residual activity.
Data returned: 47

Data request: What residual activity value was documented for this compound, NC1(c2ccc(-c3nc4ccn5c(=O)[nH]nc5c4cc3-c3ccccc3)cc2)CCC1 ?
Data returned: 107

Data request: residual activity lookup needed for Cc1cc(NC(=O)c2cccc(NC(=O)/C=C/CN(C)C)c2)ccc1Nc1nccc(-c2cccnc2)n1 , thanks.
Data returned: 66

P. NC(=O)c1c(NC(=O)C2CC2)sc2c1CCCC2
Q. COc1cc(O)c2c(c1)[C@H]1OC1C[C@H](O)[C@H](O)C(=O)/C=C\C[C@H](C)OC2=O (stereo not given in full)
Data request: Given P and Q , report the one with the higher recorded residual activity. # reply format: chosen label
Data returned: P

P. COc1cc2ncn(-c3cc(OCc4ccccc4S(C)(=O)=O)c(C#N)s3)c2cc1OC
Q. COc1cc(C(=O)N2CCOCC2)c(F)cc1Nc1ncc(C(F)(F)F)c(NC2CC2)n1
Data request: From the recorded data, which exceeds the other in residual activity: P or Q ? Please reply using the label of the selected record.
Data returned: P
